Reference for the values: PubChem BioAssay (NCI)

# Tested on: BT-549 breast
# assay summary: NCI-60 one-dose screen, 48 h
# stated conditions: 10 µM unless noted
This is part of a sample that, as a whole, favours compounds with a hit. Of some 83,000 tested, about 20% had one in any assay. Activity calls are given as the source filed them. The calls were made as follows: active = growth percent below 10; inactive = the rest.
Just give me one of these, please: active, inactive

Answered cases to consult:
Q: # fetch the recorded call for `O=c1[nH]c2ccc(Cl)cc2cc1CSc1nccc(-c2ccc(Cl)cc2)n1` here
A: inactive

Q: Would you mind doing `Cc1occc1C(=O)NN1C(=O)/C(=C/C=C/c2ccc([N+](=O)[O-])o2)SC1=S` as well?
A: active

Q: Would you mind doing `Cn1cc(-c2cc(N)n3nc(-c4cn(C)c5ccccc45)cc3n2)c2cc(Br)ccc21` as well?
A: inactive

In the following, a different molecule is considered.
Q: # fetch the recorded call for CC1(C)CC[C@]2(C(=O)O)CC[C@]3(C)C(=CCC4[C@@]5(C)C[C@@H](O)[C@@H]6OC(c7cccc(Br)c7)OC[C@@]6(C)C5CC[C@]43C)C2C1 (some centres undefined) here
A: inactive
